Reference source: patent US10532986B2

# systemUnderTest: Recombinant human PDE4B (Homo sapiens, UniProt Q07343)
# Construct: amino acid 305-end; GST (N)
# Sequence (Q07343 305-736 limits assumed): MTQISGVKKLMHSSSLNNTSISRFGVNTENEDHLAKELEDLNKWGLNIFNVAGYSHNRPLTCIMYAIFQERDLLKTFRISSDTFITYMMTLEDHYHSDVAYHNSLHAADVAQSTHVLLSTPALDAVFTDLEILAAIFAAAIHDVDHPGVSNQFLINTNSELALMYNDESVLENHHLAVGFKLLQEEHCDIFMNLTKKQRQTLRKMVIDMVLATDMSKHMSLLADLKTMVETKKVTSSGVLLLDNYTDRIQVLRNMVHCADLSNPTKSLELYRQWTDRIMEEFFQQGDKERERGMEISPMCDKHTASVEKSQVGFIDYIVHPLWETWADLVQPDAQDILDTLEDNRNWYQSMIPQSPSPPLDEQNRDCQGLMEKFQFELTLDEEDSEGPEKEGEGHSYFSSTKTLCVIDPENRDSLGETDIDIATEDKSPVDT
# assayText: Inhibitory activity of the compounds against PDE 4B (fluorescence polarization, Transcreener AMP2/GMP2)
# statedConditions: recombinant human PDE4B (aa 305-end, GST tag); 1 μM cAMP; 1 hour at room temperature
Quick rule for you: IC50 under 8 nM gets yes (1), anything else gets no (0).

[
  {
    "compound": "COc1ccc(C(CS(C)(=O)=O)n2c(=O)[nH]c3cc(-c4ccccc4F)ccc32)cc1 (stereo not shown)",
    "classification": "no (0)"
  },
  {
    "compound": "CCOc1cc([C@@H](CS(C)(=O)=O)n2c(=O)[nH]c3cc(-c4ccccc4Cl)ccc32)ccc1OC",
    "classification": "yes (1)"
  }
]

Please state whether IC50 is below 8 nM for CCOc1cc([C@@H](CS(C)(=O)=O)n2c(=O)n(CC(F)F)c3cc(C(F)(F)F)ccc32)ccc1OC
no (0)

For CCOc1cc([C@@H](CS(C)(=O)=O)n2c(=O)[nH]c3c(Br)cccc32)ccc1OC then?
no (0)

Try the compound CCOc1cc([C@@H](CS(C)(=O)=O)n2c(=O)[nH]c3cc(-c4ccccc4OC)ccc32)ccc1OC
yes (1)

Next entry: CCOc1cc([C@@H](CS(C)(=O)=O)n2c(=O)n(CC#N)c3cc(Cl)ccc32)ccc1OC
yes (1)

Queued: CCOc1cc([C@@H](CS(C)(=O)=O)n2c(=O)[nH]c3cc(C(F)(F)F)cc(F)c32)ccc1OC
no (0)

How about this compound: CCOC(=O)c1ccc2c(c1)n(C)c(=O)n2[C@H](CS(C)(=O)=O)c1ccc(OC)c(OCC)c1
no (0)

Please do the same for CCOc1cc([C@@H](CS(C)(=O)=O)n2c(=O)[nH]c3c(-c4ncc(F)cn4)cccc32)ccc1OC as well.
yes (1)

Consider next the compound CCOC(=O)c1ccc2c(c1)n(CC(F)(F)F)c(=O)n2[C@H](CS(C)(=O)=O)c1ccc(OC)c(OCC)c1 in the same way.
no (0)

Try the compound CCOc1cc([C@@H](CS(C)(=O)=O)n2c(=O)n(CC#N)c3cc(C(F)(F)F)ccc32)ccc1OC
no (0)

Same question for CCOc1cc([C@@H](CS(C)(=O)=O)n2c(=O)[nH]c3c(C(C)=O)cccc32)ccc1OC please.
no (0)

What about this compound? CCOc1cc([C@@H](CS(C)(=O)=O)n2c(=O)n(Cc3ccccc3F)c3ccccc32)ccc1OC
no (0)

----------
# systemUnderTest: Recombinant human PDE4B (Homo sapiens, UniProt Q07343)
# Construct: amino acid 305-end; GST (N)
# assayText: Inhibitory activity of the compounds against PDE 4B (fluorescence polarization, Transcreener AMP2/GMP2)
# statedConditions: recombinant human PDE4B (aa 305-end, GST tag); 1 μM cAMP; 1 hour at room temperature
valueKind: pIC50
Please keep in mind that pIC50 is minus log10 of the molar concentration; only the number is needed.

Please give the measured pIC50 for this compound: CCOC(=O)c1ccc2c(c1)n(CC(F)F)c(=O)n2[C@H](CS(C)(=O)=O)c1ccc(OC)c(OCC)c1
7.83

// same read-out, input: CCOc1cc([C@@H](CS(C)(=O)=O)n2c(=O)[nH]c3cc(-c4ccccc4F)ccc32)ccc1OC
9.28

Also check CCOc1cc(C(CS(C)(=O)=O)n2c(=O)n(CCS(C)(=O)=O)c3cc(Br)ccc32)ccc1OC (stereo not shown)
7.68

Follow-up entry: CCOc1cc([C@@H](CS(C)(=O)=O)n2c(=O)n(CCO)c3cc(Cl)ccc32)ccc1OC
8.35

Try this compound too: CCOc1cc([C@@H](CS(C)(=O)=O)n2c(=O)n(C)c3cc(Cl)ccc32)ccc1OC
8.10

Thanks! And CCOc1cc([C@@H](CS(C)(=O)=O)n2c(=O)n(C(C)C)c3cc(-c4ccccc4F)ccc32)ccc1OC ?
8.90

Next compound: CCOc1cc([C@@H](CS(C)(=O)=O)n2c(=O)n(CC#N)c3cc(F)ccc32)ccc1OC
7.94

And for CCOc1cc([C@@H](CS(C)(=O)=O)n2c(=O)[nH]c3cc(Br)ccc32)ccc1OC ?
8.20

What would you report for CCOc1cc([C@@H](CS(C)(=O)=O)n2c(=O)n(CCO)c3cc(F)ccc32)ccc1OC ?
7.51
